Dear all, this message contains AC50 results, target or system D(1A) dopamine receptor (Homo sapiens, UniProt P21728). Also: assay procedure not described here.

1. CCCCCCCCCCCCCCCC(=O)OC/C=C(C)/C=C/C=C(C)/C=C/C1=C(C)CCCC1(C)C [VITAMIN A PALMITATE]: > 30 µM
2. Nc1ncnc(Nc2ccc(Cl)cc2)n1 [CHLORAZANIL]: > 30 µM

Challenge: Provide measured AC50 value, entry: CCCCC/C=C\C/C=C\C/C=C\CCCCC(=O)O [GAMOLENIC ACID]
Response given: > 30 µM

Challenge: Provide measured AC50 value, entry: C[C@@H]1C[C@H]2[C@@H]3CCC4=CC(=O)C=C[C@]4(C)C3=CC[C@]2(C)[C@H]1C(=O)CN1CCN(c2cc(N3CCCC3)nc(N3CCCC3)n2)CC1 [TIRILAZAD]
Response given: 7.07 µM

Challenge: Provide measured AC50 value, entry: Cc1cc(CCN2CCN(c3cccc(Cl)c3)CC2)n[nH]1 [MEPIPRAZOLE]
Response given: 0.591 µM

Challenge: Provide measured AC50 value, entry: O=C(CCCN1CC=C(n2c(=O)[nH]c3ccccc32)CC1)c1ccc(F)cc1 [DROPERIDOL]
Response given: > 30 µM

====

Target: Adenosine receptor A3 (Homo sapiens, UniProt P0DMS8); also: assay procedure not described here
Sequence (P0DMS8 whole entry): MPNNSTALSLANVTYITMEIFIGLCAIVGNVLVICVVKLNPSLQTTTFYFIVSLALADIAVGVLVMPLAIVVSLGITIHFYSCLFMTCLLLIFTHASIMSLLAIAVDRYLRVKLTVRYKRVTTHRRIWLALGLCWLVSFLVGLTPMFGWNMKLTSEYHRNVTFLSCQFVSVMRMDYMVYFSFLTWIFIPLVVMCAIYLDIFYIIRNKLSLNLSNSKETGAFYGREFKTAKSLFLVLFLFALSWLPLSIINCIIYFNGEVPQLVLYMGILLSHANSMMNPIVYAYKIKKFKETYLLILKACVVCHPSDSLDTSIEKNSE
assay.endpoint: AC50

1) N=C(N)c1ccc2cc(OC(=O)c3ccc(N=C(N)N)cc3)ccc2c1 [NAFAMOSTAT]: 21 µM
2) N=C(N)NCCCCCCC(=O)NC(O)C(=O)NCCCCNCCCN (stereo not drawn): > 30 µM

Query compound follows.
Challenge: Please report the measured AC50 for CC(C)(C)NCC(O)c1cc(Cl)c(N)c(Cl)c1 (stereo not drawn) [CLENBUTEROL] tested on Adenosine receptor A3 (Homo sapiens, UniProt P0DMS8). Also: assay procedure not described here.
Response given: > 30 µM

====

Dear all, this message contains AC50 results, target or system Sodium-dependent dopamine transporter (Homo sapiens, UniProt Q01959). Also: assay procedure not described here.

Below: 2 molecules and their reported AC50.
1) CC(=N)N1CC[C@H](SC2=C(C(=O)O)N3C(=O)[C@H]([C@@H](C)O)[C@H]3C2)C1: 270 µM
2) N[C@H](Cc1cc(I)c(Oc2cc(I)c(O)c(I)c2)c(I)c1)C(=O)O: > 30 µM

Query molecule follows.
Challenge: Provide measured AC50 value, entry: COCCOC(=O)C1=C(C)NC(C)=C(C(=O)OC/C=C/c2ccccc2)C1c1cccc([N+](=O)[O-])c1 (stereo not drawn)
Response given: > 30 µM

====

AC50 for assorted molecules
Target: Alpha-1A adrenergic receptor (Homo sapiens, UniProt P35348); also: assay procedure not described here
Sequence (P35348 whole entry): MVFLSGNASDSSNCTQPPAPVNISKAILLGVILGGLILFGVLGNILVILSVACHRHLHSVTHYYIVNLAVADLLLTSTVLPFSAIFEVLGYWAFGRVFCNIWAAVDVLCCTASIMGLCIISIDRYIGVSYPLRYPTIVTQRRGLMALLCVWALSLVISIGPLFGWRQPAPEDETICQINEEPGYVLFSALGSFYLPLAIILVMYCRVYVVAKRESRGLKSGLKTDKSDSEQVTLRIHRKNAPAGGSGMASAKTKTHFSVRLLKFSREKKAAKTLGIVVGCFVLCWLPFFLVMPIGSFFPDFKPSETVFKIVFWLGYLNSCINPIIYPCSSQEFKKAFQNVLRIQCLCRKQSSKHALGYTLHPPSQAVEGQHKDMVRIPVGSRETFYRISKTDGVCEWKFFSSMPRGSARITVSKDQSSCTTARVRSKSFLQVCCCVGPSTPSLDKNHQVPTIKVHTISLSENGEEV
Assay type: functional, cell-based

Below: 6 molecules and their reported AC50.
1. CCCNC(C)C(=O)Nc1ccccc1C (centres undefined): > 30 µM
2. COc1cccc(N(C)C(=S)Oc2ccc3c(c2)CCCC3)n1 [LIRANAFTATE]: > 30 µM
3. CCN(CC)CCOC(=O)c1ccc(N)cc1Cl: > 30 µM
4. C=C(C)[C@@H]1CCC(C)=C[C@H]1c1c(O)cc(CCCCC)cc1O: > 10 µM
5. COc1cc2c(Nc3ccc(Br)cc3F)ncnc2cc1OCC1CCN(C)CC1: 22 µM
6. CCCC(C)(COC(N)=O)COC(=O)NC(C)C (centres undefined): > 30 µM

Challenge: Provide measured AC50 value, entry: CO[C@@]1(NC(=O)CSCC#N)C(=O)N2C(C(=O)O)=C(CSc3nnnn3C)CS[C@@H]21
Response given: > 30 µM

Challenge: Provide measured AC50 value, entry: CCCN(CC)C(CC)C(=O)Nc1c(C)cccc1C (centres undefined)
Response given: > 30 µM

Challenge: Provide measured AC50 value, entry: CN(C)c1cc(CNCC(C)(C)C)c(O)c2c1C[C@H]1C[C@H]3[C@H](N(C)C)C(O)=C(C(N)=O)C(=O)[C@@]3(O)C(O)=C1C2=O
Response given: > 30 µM

Challenge: Provide measured AC50 value, entry: N=C(N)NCCCCCCC(=O)NC(O)C(=O)NCCCCNCCCN (centres undefined)
Response given: > 30 µM

Challenge: Provide measured AC50 value, entry: COc1ccnc(C[S+]([O-])c2nc3ccc(OC(F)F)cc3[nH]2)c1OC (centres undefined)
Response given: > 30 µM

Challenge: Provide measured AC50 value, entry: Cc1cc(CC(=O)O)n(C)c1C(=O)c1ccc(Cl)cc1 [ZOMEPIRAC]
Response given: > 30 µM

Challenge: Provide measured AC50 value, entry: N=C(N)c1ccc2cc(OC(=O)c3ccc(N=C(N)N)cc3)ccc2c1
Response given: 15 µM

Challenge: Provide measured AC50 value, entry: CCCC[C@H](C)C[C@H](O)/C=C/[C@H]1[C@H](O)CC(=O)[C@@H]1CCCC/C=C/C(=O)O
Response given: > 30 µM

Challenge: Provide measured AC50 value, entry: CCN(CC)C(=O)C1CN2CCc3cc(OC)c(OC)cc3C2CC1OC(C)=O (centres undefined) [BENZQUINAMIDE]
Response given: > 30 µM

Challenge: Provide measured AC50 value, entry: O=C1NC(=O)C(c2ccccc2)(c2ccccc2)N1
Response given: > 30 µM

Challenge: Provide measured AC50 value, entry: O=C(Nc1c(Cl)cncc1Cl)c1ccc(OC(F)F)c(OCC2CC2)c1
Response given: > 30 µM

Challenge: Provide measured AC50 value, entry: C=CC1=C(C(=O)O)N2C(=O)[C@@H](NC(=O)/C(=N\OCC(=O)O)c3csc(N)n3)[C@H]2SC1
Response given: > 30 µM

Challenge: Provide measured AC50 value, entry: Cc1ccc(=O)n(-c2ccccc2)c1
Response given: > 30 µM

====

AC50 for assorted molecules
Biological target: Alpha-2A adrenergic receptor (Homo sapiens, UniProt P08913); also: assay procedure not described here
Sequence (P08913 whole entry): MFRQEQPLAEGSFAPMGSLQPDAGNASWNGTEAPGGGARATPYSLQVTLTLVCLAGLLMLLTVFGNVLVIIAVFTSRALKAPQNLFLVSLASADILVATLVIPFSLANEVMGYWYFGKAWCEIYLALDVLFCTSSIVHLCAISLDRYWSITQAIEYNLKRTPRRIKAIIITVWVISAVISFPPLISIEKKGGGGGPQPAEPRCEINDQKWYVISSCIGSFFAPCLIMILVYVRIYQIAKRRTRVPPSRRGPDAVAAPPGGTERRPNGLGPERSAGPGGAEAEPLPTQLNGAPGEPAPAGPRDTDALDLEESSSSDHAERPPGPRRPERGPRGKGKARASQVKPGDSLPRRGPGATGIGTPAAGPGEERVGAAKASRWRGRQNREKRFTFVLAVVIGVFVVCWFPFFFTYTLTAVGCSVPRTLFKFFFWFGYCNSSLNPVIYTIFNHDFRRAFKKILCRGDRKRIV
Type: functional, cell-based

1) C#C[C@]1(O)CC[C@H]2[C@@H]3CCc4cc(OC)ccc4[C@H]3CC[C@@]21C [MESTRANOL]: > 10 µM
2) CC(=O)OCC(CCn1cnc2cnc(N)nc21)COC(C)=O [FAMCICLOVIR]: > 10 µM

Query molecule follows.
Challenge: Provide measured AC50 value, entry: CC(/C=C1\SC(=S)N(CC(=O)O)C1=O)=C\c1ccccc1
Response given: > 30 µM

====

Target: 5-hydroxytryptamine receptor 2B (Homo sapiens, UniProt P41595); also: assay procedure not described here
Sequence (P41595 whole entry): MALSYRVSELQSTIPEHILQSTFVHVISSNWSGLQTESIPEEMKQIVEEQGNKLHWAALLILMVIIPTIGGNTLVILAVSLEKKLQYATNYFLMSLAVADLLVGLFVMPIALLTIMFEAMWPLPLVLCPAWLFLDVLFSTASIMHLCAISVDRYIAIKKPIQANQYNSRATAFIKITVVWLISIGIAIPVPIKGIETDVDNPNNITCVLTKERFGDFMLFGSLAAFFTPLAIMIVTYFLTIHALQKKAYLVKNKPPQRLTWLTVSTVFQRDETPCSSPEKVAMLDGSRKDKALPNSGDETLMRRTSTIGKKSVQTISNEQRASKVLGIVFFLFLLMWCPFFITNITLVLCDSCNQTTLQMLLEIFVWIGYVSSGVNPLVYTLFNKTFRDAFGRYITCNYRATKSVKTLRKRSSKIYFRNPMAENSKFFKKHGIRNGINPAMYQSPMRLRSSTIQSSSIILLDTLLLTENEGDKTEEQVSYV
Assay type: functional, cell-based
assay.endpoint: AC50

1) C[C@@H]1C[C@H]2[C@@H]3C[C@H](F)C4=CC(=O)C=C[C@]4(C)[C@@]3(F)[C@@H](O)C[C@]2(C)[C@H]1C(=O)CO: 18 µM
2) NS(=O)(=O)c1cc(C2(O)NC(=O)c3ccccc32)ccc1Cl (configuration not stated): > 10 µM
3) CCc1oc2ccccc2c1C(=O)c1cc(Br)c(O)c(Br)c1: 1.53 µM
4) Cc1cccc(N(C)C(=S)Oc2ccc3ccccc3c2)c1 [TOLNAFTATE]: > 10 µM
5) C[C@]12CC[C@H](O)CC1=CC[C@@H]1[C@@H]2CC[C@]2(C)C(c3cccnc3)=CC[C@@H]12: > 10 µM

Challenge: Provide measured AC50 value, entry: CCC(=O)O[C@@H](O[P@](=O)(CCCCc1ccccc1)CC(=O)N1C[C@H](C2CCCCC2)C[C@H]1C(=O)O)C(C)C
Response given: > 30 µM

Challenge: Provide measured AC50 value, entry: Clc1ccc(C(Cn2ccnc2)OCc2ccc(Sc3ccccc3)cc2)c(Cl)c1 (configuration not stated)
Response given: > 30 µM

Challenge: Provide measured AC50 value, entry: N[C@H](Cc1cc(I)c(Oc2cc(I)c(O)c(I)c2)c(I)c1)C(=O)O
Response given: 26 µM

Challenge: Provide measured AC50 value, entry: O=c1oc2ccccc2c(O)c1Cc1c(O)c2ccccc2oc1=O
Response given: > 10 µM

Challenge: Provide measured AC50 value, entry: CC(C)C[C@H](CN)CC(=O)O
Response given: > 30 µM

Challenge: Provide measured AC50 value, entry: CC(CCc1ccccc1)NC(C)C(O)c1ccc(O)cc1 (configuration not stated)
Response given: 6.9 µM

Challenge: Provide measured AC50 value, entry: [H]/N=C(\N/C(=N/[H])NCCCCCCNC(=N)NC(=N)Nc1ccc(Cl)cc1)Nc1ccc(Cl)cc1
Response given: 1.26 µM

====

AC50 for assorted molecules
Target: 5-hydroxytryptamine receptor 2A (Homo sapiens, UniProt P28223); also: assay procedure not described here
Sequence (P28223 whole entry): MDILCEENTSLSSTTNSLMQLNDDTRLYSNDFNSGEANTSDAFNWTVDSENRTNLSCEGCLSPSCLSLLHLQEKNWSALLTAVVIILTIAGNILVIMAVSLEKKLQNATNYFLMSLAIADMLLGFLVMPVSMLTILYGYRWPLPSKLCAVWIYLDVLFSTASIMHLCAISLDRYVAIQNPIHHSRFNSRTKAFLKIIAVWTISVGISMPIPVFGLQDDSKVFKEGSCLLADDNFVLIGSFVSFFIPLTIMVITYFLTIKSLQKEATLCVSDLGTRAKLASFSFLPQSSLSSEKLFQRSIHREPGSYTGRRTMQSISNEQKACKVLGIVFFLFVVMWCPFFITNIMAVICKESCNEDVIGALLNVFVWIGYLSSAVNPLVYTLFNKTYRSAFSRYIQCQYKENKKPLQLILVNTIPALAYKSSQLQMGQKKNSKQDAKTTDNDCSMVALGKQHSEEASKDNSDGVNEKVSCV
Format: functional, cell-based

Challenge: Provide measured AC50 value, entry: C=C(C)[C@@H]1CCC(C)=C[C@H]1c1c(O)cc(CCCCC)cc1O [CANNABIDIOL]
Response given: > 30 µM

Challenge: Provide measured AC50 value, entry: CCCC[C@H](C)C[C@H](O)/C=C/[C@H]1[C@H](O)CC(=O)[C@@H]1CCCC/C=C/C(=O)O [LIMAPROST]
Response given: > 30 µM

====

Dear all, this message contains AC50 results, target or system Vasopressin V1a receptor (Homo sapiens). Also: assay procedure not described here.

Below: 8 compounds and their reported AC50.
1) CC(=O)S[C@@H]1CC2=CC(=O)CC[C@]2(C)[C@H]2CC[C@@]3(C)[C@@H](CC[C@@]34CCC(=O)O4)[C@H]12: > 30 µM
2) C=CC1=C(C(=O)O)N2C(=O)[C@@H](NC(=O)/C(=N\OCC(=O)O)c3csc(N)n3)[C@H]2SC1: > 30 µM
3) COc1ccnc(C[S+]([O-])c2nc3ccc(OC(F)F)cc3[nH]2)c1OC (stereo not given): > 10 µM
4) CCOC(=O)NNc1ccc(N(CC)CC(C)O)nn1 (stereo not given): > 30 µM
5) O=C1NC(=O)C(c2ccccc2)(c2ccccc2)N1: > 30 µM
6) CC(C)C[C@H](CN)CC(=O)O: > 30 µM
7) CC(=O)/N=c1/sc(S(N)(=O)=O)nn1C [METHAZOLAMIDE]: > 10 µM
8) CC(/C=C1\SC(=S)N(CC(=O)O)C1=O)=C\c1ccccc1: 28 µM

Challenge: Please report the measured AC50 for CC1(C)C(C=C(Cl)Cl)C1C(=O)OCc1cccc(Oc2ccccc2)c1 (stereo not given) tested on Vasopressin V1a receptor (Homo sapiens). Also: assay procedure not described here.
Sequence (P37288 whole entry): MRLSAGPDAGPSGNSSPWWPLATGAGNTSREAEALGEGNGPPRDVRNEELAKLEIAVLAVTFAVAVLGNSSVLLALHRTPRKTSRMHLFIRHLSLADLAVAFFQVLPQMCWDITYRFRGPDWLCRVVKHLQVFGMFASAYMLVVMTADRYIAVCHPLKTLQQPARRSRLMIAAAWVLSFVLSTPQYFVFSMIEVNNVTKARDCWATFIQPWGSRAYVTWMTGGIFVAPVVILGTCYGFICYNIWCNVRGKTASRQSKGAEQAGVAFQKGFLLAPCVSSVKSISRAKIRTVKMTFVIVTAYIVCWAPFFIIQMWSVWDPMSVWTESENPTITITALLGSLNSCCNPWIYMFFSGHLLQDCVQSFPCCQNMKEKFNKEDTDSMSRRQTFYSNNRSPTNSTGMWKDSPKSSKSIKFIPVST
Response given: > 10 µM

Challenge: Please report the measured AC50 for CC(C)=CCOc1ccc(/C=C/C(=O)c2ccc(OCC=C(C)C)cc2OCC(=O)O)cc1 tested on Vasopressin V1a receptor (Homo sapiens). Also: assay procedure not described here.
Response given: > 30 µM
